Reported IC50 values follow for various compounds
molecular target: Human BOAT1 (Homo sapiens, UniProt Q695T7); construct: expressed in transfected cells; test: hBOAT1 inhibitory test (phenylalanine uptake); assay type: cell-based; settings: Human BOAT1 stable expression CHO cells; [3H]-L-phenylalanine uptake, phenylalanine 0.25 mM; radioactivity after 100 to 200 min; read-out: hB0AT1 IC50
Sequence (Q695T7 whole entry): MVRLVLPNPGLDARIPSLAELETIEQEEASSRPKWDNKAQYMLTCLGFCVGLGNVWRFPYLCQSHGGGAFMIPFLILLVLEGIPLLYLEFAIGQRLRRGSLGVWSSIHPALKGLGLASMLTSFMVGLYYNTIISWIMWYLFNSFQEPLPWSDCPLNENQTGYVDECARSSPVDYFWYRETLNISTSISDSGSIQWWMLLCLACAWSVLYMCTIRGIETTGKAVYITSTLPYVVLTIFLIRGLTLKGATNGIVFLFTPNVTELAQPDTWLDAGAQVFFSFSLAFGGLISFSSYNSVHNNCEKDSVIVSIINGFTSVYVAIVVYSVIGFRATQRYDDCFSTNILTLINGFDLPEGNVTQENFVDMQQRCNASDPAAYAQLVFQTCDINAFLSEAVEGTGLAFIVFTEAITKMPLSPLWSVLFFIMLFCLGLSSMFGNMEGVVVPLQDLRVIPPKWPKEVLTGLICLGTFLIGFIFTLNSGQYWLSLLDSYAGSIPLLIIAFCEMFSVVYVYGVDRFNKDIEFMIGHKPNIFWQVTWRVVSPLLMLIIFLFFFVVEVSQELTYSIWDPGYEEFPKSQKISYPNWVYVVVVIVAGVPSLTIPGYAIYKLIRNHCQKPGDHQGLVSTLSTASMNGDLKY
metric name: IC50

                                    compound  metric_name    result
 0  C[C@@H]1CN(CCCC(=O)O)C[C@H](c2ccccc2)N1C(=O)CNC(=O)/C=C/c1ccc(C(F)(F)F)cc1F [I-371]         IC50   3.38 µM
 1  O=C(O)Cc1ccc2c(c1)CCN(C(=O)CNC(=O)/C=C/c1ccc(C(F)(F)F)cc1)CC2 [I-140]         IC50  0.436 µM
 2  COC(=O)c1cccc(C2CN(C(=O)CNC(=O)/C=C/c3ccc(C(F)(F)F)cc3F)CCN2C)c1 (stereo not shown) [I-62]         IC50  0.463 µM
 3  O=C(O)CCc1ncc2c(n1)CCN(C(=O)CNC(=O)/C=C/c1ccc(C(F)(F)F)cc1)C2 [I-156]         IC50  0.251 µM
 4  N#Cc1cc2c(cc1CC(=O)O)CCN(C(=O)CNC(=O)/C=C/c1ccc(I)cc1F)C2 [I-223]         IC50  0.086 µM
 5  O=C(O)CCCN1CCN(C(=O)CNC(=O)/C=C/c2ccc(C(F)(F)F)cc2F)C(c2ccccc2Cl)C1 (stereo not shown) [I-233]         IC50  0.609 µM
 6  O=C(O)Cc1cc(Cl)c2c(c1)CCN(C(=O)CNC(=O)/C=C/c1ccc(C(F)(F)F)cc1)C2 [I-145]         IC50  0.086 µM
 7  N#Cc1cc2c(cc1CC(=O)O)CCN(C(=O)CNC(=O)/C=C/c1ccc(C(F)(F)F)cc1F)C2 [I-225]         IC50  0.295 µM
 8  O=C(O)Cc1cc2c(cc1F)CN(C(=O)CNC(=O)/C=C/c1ccc(C(F)(F)F)cc1)CC2 [I-180]         IC50  0.122 µM
 9  C[C@@H]1CN(C(=O)CNC(=O)/C=C/c2ccc(C(F)(F)F)cc2F)[C@@H](c2cccc(C3CC3)c2)CN1CCC(=O)O [I-384]         IC50  0.031 µM
10  O=C(/C=C/c1ccc(C(F)(F)F)cc1F)NCC(=O)N1CCN(Cc2ccc(C(=O)O)cc2)CC1c1ccc(Cl)cc1 (stereo not shown) [I-251]         IC50  0.366 µM
11  C[C@@H]1CN(C(=O)CNC(=O)/C=C/c2ccc(C(F)(F)F)cc2F)[C@H](C)CN1CCCC(=O)O [I-199]         IC50   0.37 µM
12  O=C(O)Cc1ccc2c(c1Cl)CCN(C(=O)CNC(=O)/C=C/c1ccc(C(F)(F)F)cc1)C2 [I-146]         IC50  0.067 µM
13  O=C(/C=C/c1ccc(C(F)(F)F)cc1F)NCC(=O)N1CCc2cc(Cc3nn[nH]n3)cc(Cl)c2C1 [I-378]         IC50  0.232 µM
14  O=C(O)CCc1nc2c(s1)CN(C(=O)CNC(=O)/C=C/c1ccc(C(F)(F)F)cc1)CC2 [I-200]         IC50  0.192 µM
15  N#Cc1c(CC(=O)O)ccc2c1CCN(C(=O)CNC(=O)/C=C/c1ccc(I)cc1F)C2 [I-203]         IC50  0.056 µM
